Target: β-secretase (BACE) (Homo sapiens)
Construct: purchased Panvera
Sequence (P56817 46-501): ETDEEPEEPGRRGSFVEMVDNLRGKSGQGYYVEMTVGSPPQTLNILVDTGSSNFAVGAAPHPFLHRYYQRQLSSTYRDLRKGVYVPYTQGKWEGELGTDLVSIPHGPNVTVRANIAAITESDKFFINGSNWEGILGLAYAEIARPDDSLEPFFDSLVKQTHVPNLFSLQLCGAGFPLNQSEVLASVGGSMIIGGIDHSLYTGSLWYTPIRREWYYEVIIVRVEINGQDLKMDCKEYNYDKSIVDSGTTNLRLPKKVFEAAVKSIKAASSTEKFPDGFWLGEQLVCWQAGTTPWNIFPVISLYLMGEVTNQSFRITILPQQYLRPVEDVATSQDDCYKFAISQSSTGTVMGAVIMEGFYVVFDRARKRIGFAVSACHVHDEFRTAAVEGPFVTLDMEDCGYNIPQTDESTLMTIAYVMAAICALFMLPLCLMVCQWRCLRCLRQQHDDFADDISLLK
Test: BACE FS1 Assay (% Inhibition and Ki)
Assay type: biochemical
Settings: 0.3 μM test compound; FS1 substrate; read-out: % Inhibition (FS) @ 0.3 μM
recorded metric: inhibition at 0.3 µM (%)

• CCOC(=O)C1CCC(N(C)C(=O)CCC(C2CCCCC2)N2Cc3cc(Oc4ccccc4)ncc3N=C2N)CC1 (stereo not shown) = 4
• CC(C)C(CCC(=O)N(CCO)C1CCC(C(=O)O)CC1)N1Cc2cc(Oc3ccccc3)ncc2N=C1N (stereo not shown) = 97
• NC1=Nc2cnc(Oc3ccccc3)cc2CN1[C@@H](CCC(=O)N(CCO)C1CCCCC1)C1CCCCC1 = 136
• NC1=Nc2cnc(Oc3ccccc3)cc2CN1[C@@H](CCC(=O)N(CCOCc1ccccc1)[C@H]1CC[C@@H](C(=O)O)CC1)C1CCOCC1 = 112
• CN(C(=O)CCC(C1CCCCC1)N1Cc2cc(Oc3ccccc3)ncc2N=C1N)C1CCC(C(=O)O)CC1 (stereo not shown) = 119
• CC(C)[C@H](CCC(=O)N[C@@H](COCc1ccccc1)C(=O)O)N1Cc2cc(Oc3ccccc3)ncc2N=C1N = 109
• CCOC(=O)C1CCC(N(C)C(=O)CCC(C2CCOCC2)N2Cc3cc(Oc4ccccc4)ncc3N=C2N)CC1 (stereo not shown) = 16

###

// pIC50 lookup, one value per entry
Target: UniProt P56817
Assay: CEREP BACE Inhibition Assay
Format: biochemical
Settings: recombinant enzyme; read-out: IC50
pIC50: −log10 of the molar value.
recorded metric: pIC50

- COCCN(CCOC)C(=O)CC[C@@H](C1CCCCC1)N1Cc2cc(Oc3ccccc3)ncc2N=C1N: 6.70
- CC(C)(C)OCCN(Cc1cccs1)C(=O)CC[C@@H](C1CCCCC1)N1Cc2cc(Oc3ccccc3)ncc2N=C1N: 6.96
- C[C@@H](CO)N(CCC(C)(C)C)C(=O)CC[C@@H](C1CCCCC1)N1Cc2cc(Oc3ccccc3)ncc2N=C1N: 6.70
- Cc1nc([C@H](COC(C)(C)C)NC(=O)CC[C@@H](C2CCCCC2)N2Cc3cc(Oc4ccccc4)ncc3N=C2N)no1: 7.21
- CC(C)[C@H](C(=O)N(C)CCc1ccccc1)N1Cc2cc(Oc3ccccc3)ncc2N=C1N: 6.01
- CN(C(=O)C[C@@H](C1CCCCC1)N1Cc2cc(Oc3ccccc3)ncc2N=C1N)C1CCCCC1: 6.54
- CC(C)(C)OC[C@@H](NC(=O)CC[C@@H](C1CCCCC1)N1Cc2cc(Oc3ccccc3)ncc2N=C1N)C(=O)N[C@@H](CCC(=O)O)C(=O)O [Compound 224]: 7.09

###

Molecular target: human BACE-1 (Homo sapiens)
Sequence (P56817 46-501): as above
Test: CEREP BACE Inhibition Assay
Type: biochemical
Settings: 1.0 μM; percent inhibition of the control activity; recombinant enzyme
recorded metric: % Inhibition @ 1.0 μM (%)

- CC(C)(C)CNCC[C@@H](C1CCCCC1)N1Cc2cc(Oc3ccccc3)ncc2N=C1N: 53
- CC(C)(C)CCNCC[C@@H](C1CCCCC1)N1Cc2cc(Oc3ccccc3)ncc2N=C1N: 95
- CC(C)(C)CNC(=O)CC[C@@H](C1CCCCC1)N1Cc2cc(Oc3ccccc3)ncc2N=C1N: 101

###

Target: human BACE-1 (Homo sapiens)
Experiment: CEREP BACE Inhibition Assay
Type: biochemical
Settings: recombinant enzyme; read-out: IC50
pIC50: −log10 of the molar value.
// pIC50 lookup, one value per entry
recorded metric: pIC50

* CC(C)(C)OCCN(Cc1cncs1)C(=O)CC[C@@H](C1CCCCC1)N1Cc2cc(Oc3ccccc3)ncc2N=C1N | 6.96
* CC(C)(C)OC[C@H](CN)NCCC[C@@H](C1CCCCC1)N1Cc2cc(Oc3ccccc3)ncc2N=C1N | 6.28
* CC(C)CN(C)CCC[C@@H](C1CCCCC1)N1Cc2cc(Oc3ccccc3)ncc2N=C1N | 6.92
* CC(C)CN(CCC[C@@H](C(C)C)N1Cc2cc(Oc3ccccc3)ncc2N=C1N)CCN1CCOCC1 | 7.27
* CC(C)[C@H](CCC(=O)N[C@@H](COC(C)(C)C)c1nnn[nH]1)N1Cc2cc(Oc3ccccc3)ncc2N=C1N | 6.96
* CC(C)(C)CCN(CCN)C(=O)CC[C@@H](C1CCCCC1)N1Cc2cc(Oc3ccccc3)ncc2N=C1N | 7.14
* CC(C)[C@H](CCC(=O)N[C@H](COC(C)(C)C)C(=O)N1CCCCC1)N1Cc2cc(Oc3ccccc3)ncc2N=C1N | 6.82
* CC(C)C(COCC1CC(CC(C)(C)C)=NO1)N1Cc2cc(Oc3ccccc3)ncc2N=C1N (stereo not drawn) | 6.27
* C[C@@H](CO)NC(=O)[C@@H](COC(C)(C)C)NC(=O)CC[C@@H](C1CCCCC1)N1Cc2cc(Oc3ccccc3)ncc2N=C1N | 6.85
* NC1=Nc2cnc(Oc3ccccc3)cc2CN1[C@@H](CCC(=O)NCCN1CCOCC1)C1CCCCC1 | 6.20
* CN(C(=O)CCC(C1CCCCC1)N1Cc2cc(Oc3ccccc3)ncc2N=C1N)C1CCS(=O)(=O)C1 (stereo not drawn) | 6.08
* COC(=O)[C@H](COC(C)(C)C)NC(=O)CC[C@@H](C(C)C)N1Cc2cc(Oc3ccccc3)ncc2N=C1N | 6.47
* CC(C)(CO)NC(=O)CC[C@@H](C1CCCCC1)N1Cc2cc(Oc3ccccc3)ncc2N=C1N | 7.04
* CC(C)(C)OCCNC(=O)CC[C@@H](C1CCCCC1)N1Cc2cc(Oc3ccccc3)ncc2N=C1N | 7.07
* CC(C)[C@H](CCC(=O)N[C@@H](COC(C)(C)C)C(=O)O)N1Cc2cc(Oc3ccccc3)ncc2N=C1N | 6.59
